B1: Glucocorticoid receptor, residues 419 to 494; numbered along this chain, P04150 (parent)
chain: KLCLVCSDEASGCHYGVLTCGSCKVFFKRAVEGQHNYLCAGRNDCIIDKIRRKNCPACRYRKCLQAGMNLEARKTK

Variants of: B1
Measurement Protocol: abundance fitness (aPCA) (normalised: wild type 0, dead -1); higher = more abundant; growth selection in yeast, the domain comes from the species named
Cond: Homo sapiens
Label Satisfied for high-side abundance fitness (at or above -0.04) and Not satisfied for low-side abundance fitness (below it).

{"Mutation Id": "I50H", "Category Label": "Not satisfied"}

Q: Dear colleague, could you confirm whether C39L has abundance fitness at or above -0.04?
Ans: Not satisfied

Q: Dear colleague, could you confirm whether A10F has abundance fitness at or above -0.04?
Ans: Not satisfied

Q: Dear colleague, could you confirm whether I50D has abundance fitness at or above -0.04?
Ans: Satisfied

Q: Dear colleague, could you confirm whether R51I has abundance fitness at or above -0.04?
Ans: Not satisfied

Q: Dear colleague, could you confirm whether A57W has abundance fitness at or above -0.04?
Ans: Not satisfied

Q: Dear colleague, could you confirm whether G21I has abundance fitness at or above -0.04?
Ans: Not satisfied

Q: Dear colleague, could you confirm whether L38C has abundance fitness at or above -0.04?
Ans: Satisfied

Q: Dear colleague, could you confirm whether H14E has abundance fitness at or above -0.04?
Ans: Not satisfied
